- System: 242566-281-R-J2-PDC complex spheroid viability
- TEST DESCRIPTION: Anticancer human tumor 242566-281-R-J2-PDC patient-derived pancreatic carcinoma cell line growth inhibition [CLK]; active = viability on the fitted dose curve at most 10% of control; inactive = the rest
- DETAILS: second compound 0.1 µM; first compound 0.316 µM
Choose one outcome from this list and give only that: active, inactive

Req: Tell me the assay call for COc1ccc([C@@H](O)c2cc(-c3ncnc4cc(N5CCOCC5)ccc34)c(F)cc2Cl)nn1 + CN1CCN(c2cc(C(=O)Nc3cc4cc(-c5cnn(C)c5)ccc4cn3)ccn2)CC1 please.
Resp: inactive

Req: Tell me the assay call for COc1ccc([C@@H](O)c2cc(-c3ncnc4cc(N5CCOCC5)ccc34)c(F)cc2Cl)nn1 + CNC(=O)c1ccc(Nc2nc(OC3CCCC3)c3c(-c4ccc5nc(C)oc5c4)c[nH]c3n2)c(OC)c1 please.
Resp: inactive

Req: Tell me the assay call for C=CC(=O)N1CCN(c2nc(=O)n(-c3c(C)ccnc3C(C)C)c3nc(-c4c(O)cccc4F)c(F)cc23)C(C)C1 (centres undefined) + CN1CCN(c2cc(C(=O)Nc3cc4cc(-c5cnn(C)c5)ccc4cn3)ccn2)CC1 please.
Resp: inactive

Req: Tell me the assay call for COc1cccc2c1C(=O)c1c(O)c3c(c(O)c1C2=O)CC(O)(C(=O)CO)CC3OC1CC(N)C(O)C(C)O1 (centres undefined) + CN1CCN(c2cc(C(=O)Nc3cc4cc(-c5cnn(C)c5)ccc4cn3)ccn2)CC1 please.
Resp: active

Req: Tell me the assay call for C=C(F)C(=O)N1CCN(c2nc(OCC3CCCN3C)nc3c2CCN(c2cccc4cccc(Cl)c24)C3)CC1CC#N (centres undefined) + CN1CCN(c2cc(C(=O)Nc3cc4cc(-c5cnn(C)c5)ccc4cn3)ccn2)CC1 please.
Resp: inactive

Req: Tell me the assay call for COc1cccc2c1C(=O)c1c(O)c3c(c(O)c1C2=O)CC(O)(C(=O)CO)CC3OC1CC(N)C(O)C(C)O1 (centres undefined) + CNC(=O)c1ccc(Nc2nc(OC3CCCC3)c3c(-c4ccc5nc(C)oc5c4)c[nH]c3n2)c(OC)c1 please.
Resp: inactive

Req: Tell me the assay call for O=c1[nH]cc(F)c(=O)[nH]1 + CN1CCN(c2cc(C(=O)Nc3cc4cc(-c5cnn(C)c5)ccc4cn3)ccn2)CC1 please.
Resp: inactive

Req: Tell me the assay call for CCCS(=O)(=O)Nc1ccc(F)c(C(=O)c2c[nH]c3ncc(-c4ccc(Cl)cc4)cc23)c1F + CN1CCN(c2cc(C(=O)Nc3cc4cc(-c5cnn(C)c5)ccc4cn3)ccn2)CC1 please.
Resp: inactive

Req: Tell me the assay call for CCCS(=O)(=O)Nc1ccc(F)c(C(=O)c2c[nH]c3ncc(-c4ccc(Cl)cc4)cc23)c1F + CNC(=O)c1ccc(Nc2nc(OC3CCCC3)c3c(-c4ccc5nc(C)oc5c4)c[nH]c3n2)c(OC)c1 please.
Resp: inactive

---

- Test system: 242566-281-R-J2-PDC complex spheroid viability
- TEST DESCRIPTION: Anticancer human tumor 242566-281-R-J2-PDC cell line growth inhibition [CLK];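 also: spheroids exposed to compounds for 7 days before readout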;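 as to viability, T/C: 100% = DMSO vehicle control wells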
- DETAILS: second compound 0.0316 µM; first compound 0.316 µM; stronger effect = lower value
Could you please report measured viability, T/C for the items listed next?
Respond with the bare value in %.

Req: // fetch viability, T/C for O=c1[nH]cc(F)c(=O)[nH]1 + CN1CCN(c2cc(C(=O)Nc3cc4cc(-c5cnn(C)c5)ccc4cn3)ccn2)CC1 ; system: 242566-281-R-J2-PDC complex spheroid viability
Resp: 103

Req: // fetch viability, T/C for Nc1ccn(C2OC(CO)C(O)C2(F)F)c(=O)n1 (stereo not drawn) + CN1CCN(c2cc(C(=O)Nc3cc4cc(-c5cnn(C)c5)ccc4cn3)ccn2)CC1 ; system: 242566-281-R-J2-PDC complex spheroid viability
Resp: 10.6

Req: // fetch viability, T/C for CC(=O)O[C@H]1C(=O)[C@@]2(C)[C@H]([C@H](OC(=O)c3ccccc3)[C@]3(O)C[C@H](OC(=O)[C@H](O)[C@@H](NC(=O)c4ccccc4)c4ccccc4)C(C)=C1C3(C)C)[C@]1(OC(C)=O)CO[C@@H]1C[C@@H]2O + CN1CCN(c2cc(C(=O)Nc3cc4cc(-c5cnn(C)c5)ccc4cn3)ccn2)CC1 ; system: 242566-281-R-J2-PDC complex spheroid viability
Resp: 28.9

---

- System: 242566-281-R-J2-PDC complex spheroid viability
- TEST DESCRIPTION: Anticancer human tumor 242566-281-R-J2-PDC cell line growth inhibition [CLK];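 also: spheroids exposed to compounds for 7 days before readout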
- DETAILS: curve of first compound; second compound 0.316 µM
pIC50: −log10 of the molar value.
PARAMETER MEASURED: pIC50

Req: Specify measured pIC50 for C=CC(=O)Nc1cc(Nc2nccc(-c3cn(C)c4ccccc34)n2)c(OC)cc1N(C)CCN(C)C + CNC(=O)c1ccc(Nc2nc(OC3CCCC3)c3c(-c4ccc5nc(C)oc5c4)c[nH]c3n2)c(OC)c1 .
Resp: < 6.52

Req: Specify measured pIC50 for C=CC(=O)Nc1cc(Nc2nccc(-c3cn(C)c4ccccc34)n2)c(OC)cc1N(C)CCN(C)C + CN1CCN(c2cc(C(=O)Nc3cc4cc(-c5cnn(C)c5)ccc4cn3)ccn2)CC1 .
Resp: > 9.02

Req: Specify measured pIC50 for C#Cc1c(F)ccc2cc(O)cc(-c3ncc4c(N5CC6CCC(C5)N6)nc(OCC56CCCN5CC(F)C6)nc4c3F)c12 (stereo not drawn) + CN1CCN(c2cc(C(=O)Nc3cc4cc(-c5cnn(C)c5)ccc4cn3)ccn2)CC1 .
Resp: > 7.50

---

- Test system: 242566-281-R-J2-PDC complex spheroid viability
- TEST DESCRIPTION: Anticancer human tumor 242566-281-R-J2-PDC cell line growth inhibition [CLK];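 also: spheroids exposed to compounds for 7 days before readout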;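 as to viability, T/C: 100% = DMSO vehicle control wells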
- DETAILS: second compound 0.0316 µM; first compound 10 µM; stronger effect = lower value
- Excerpt: A high-throughput screen of multi-cell type tumor spheroids was designed to identify active combinations of […] and targeted small molecules. Complex spheroids include a stromal component modeled by human endothelial cells (HUVEC) and fibroblasts modeled by human mesenchymal stem cells (MSCs). […] Compounds. […] If the clinical Cmax for an agent had not been determined, the highest concentration tested was 10 microM. […]
Could you please report measured viability, T/C for the items listed next?
Respond with the bare value in %.

Req: Specify measured viability, T/C for Nc1ccccc1NC(=O)c1ccc(CNC(=O)OCc2cccnc2)cc1 + CNC(=O)c1ccc(Nc2nc(OC3CCCC3)c3c(-c4ccc5nc(C)oc5c4)c[nH]c3n2)c(OC)c1 .
Resp: 32.2

Req: Specify measured viability, T/C for CC1COCCN1c1cc(C2(S(C)(=N)=O)CC2)nc(-c2ccnc3[nH]ccc23)n1 (stereo not given) + CN1CCN(c2cc(C(=O)Nc3cc4cc(-c5cnn(C)c5)ccc4cn3)ccn2)CC1 .
Resp: 31.6

Req: Specify measured viability, T/C for O=c1[nH]cc(F)c(=O)[nH]1 + CNC(=O)c1ccc(Nc2nc(OC3CCCC3)c3c(-c4ccc5nc(C)oc5c4)c[nH]c3n2)c(OC)c1 .
Resp: 53.5

Req: Specify measured viability, T/C for COc1ccc([C@@H](O)c2cc(-c3ncnc4cc(N5CCOCC5)ccc34)c(F)cc2Cl)nn1 + CN1CCN(c2cc(C(=O)Nc3cc4cc(-c5cnn(C)c5)ccc4cn3)ccn2)CC1 .
Resp: 50.1

Req: Specify measured viability, T/C for CC(=O)O[C@H]1C(=O)[C@@]2(C)[C@H]([C@H](OC(=O)c3ccccc3)[C@]3(O)C[C@H](OC(=O)[C@H](O)[C@@H](NC(=O)c4ccccc4)c4ccccc4)C(C)=C1C3(C)C)[C@]1(OC(C)=O)CO[C@@H]1C[C@@H]2O + CN1CCN(c2cc(C(=O)Nc3cc4cc(-c5cnn(C)c5)ccc4cn3)ccn2)CC1 .
Resp: 34.8
